src = PubChem BioAssay AID1159580

# assay-procedure: chemical genetic growth profiling, strain panel (AID 1159580);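 note: tested at 20 µM; growth read once vehicle control cultures reached saturation at 30 °C; 1 = growth at the plate median or of vehicle wells; lower values mean less growth of the strain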
# condition-label: S. cerevisiae deletion strains, growth OD, locus YDR392W, strain spt3, stronger effect = lower value
Among all 5,500 compounds or so, about 2,000 (36%) were called active. Inconclusive results (about 18%) are left out. Some of the results follow.
Returns: string. Value is true (1) if measured normalized growth is below 0.9, and false (0) if it is greater than or equal to it.

These solved cases illustrate the format of a correct answer.
compound | assigned-label
CCOc1ccc(NC(C)=O)cc1 | false (0)
CC(=O)OC[C@H]1O[C@@H](Oc2cc(OC(C)=O)c3c(=O)cc(-c4ccc(OC(C)=O)cc4)oc3c2)[C@H](OC(C)=O)[C@@H](OC(C)=O)[C@@H]1OC(C)=O | false (0)
CCOc1ccc(C(=O)c2ccc(O)c(O)c2O)cc1 | true (1)
CC(=O)Oc1cccc2c1C(=O)c1c(OC(C)=O)cc(C(=O)O)cc1C2=O | true (1)
COc1cc(NS(=O)(=O)c2ccc(N)cc2)ncn1 | false (0)
NC(=O)N1c2ccccc2C=Cc2ccccc21 | false (0)
CC(=O)OCC1=C(C(=O)O)N2C(=O)[C@@H](NC(=O)CCCC(N)C(=O)O)C2SC1 (stereo partly specified) | false (0)
c1ccc([C@H]2CN3CCSC3=N2)cc1 | false (0)

Check if normalized growth falls below 0.9 for `CCOc1ccc(C(=O)c2cc(O)c(OC)c(OC)c2O)cc1` .
true (1)

Check if normalized growth falls below 0.9 for C1CCC(C(CC2CCCCN2)C2CCCCC2)CC1 (stereo unspecified) .
true (1)
